These data points were gathered from patent US20250255848A1.

target: UniProt P03372; assay: Estrogen receptor degradation activity: breast cancer cell ERα in cell western assay; conditions: MCF7 cells, 4 hours post compound addition; concentration which degrades 50% of the estrogen receptor
Sequence (P03372 whole entry): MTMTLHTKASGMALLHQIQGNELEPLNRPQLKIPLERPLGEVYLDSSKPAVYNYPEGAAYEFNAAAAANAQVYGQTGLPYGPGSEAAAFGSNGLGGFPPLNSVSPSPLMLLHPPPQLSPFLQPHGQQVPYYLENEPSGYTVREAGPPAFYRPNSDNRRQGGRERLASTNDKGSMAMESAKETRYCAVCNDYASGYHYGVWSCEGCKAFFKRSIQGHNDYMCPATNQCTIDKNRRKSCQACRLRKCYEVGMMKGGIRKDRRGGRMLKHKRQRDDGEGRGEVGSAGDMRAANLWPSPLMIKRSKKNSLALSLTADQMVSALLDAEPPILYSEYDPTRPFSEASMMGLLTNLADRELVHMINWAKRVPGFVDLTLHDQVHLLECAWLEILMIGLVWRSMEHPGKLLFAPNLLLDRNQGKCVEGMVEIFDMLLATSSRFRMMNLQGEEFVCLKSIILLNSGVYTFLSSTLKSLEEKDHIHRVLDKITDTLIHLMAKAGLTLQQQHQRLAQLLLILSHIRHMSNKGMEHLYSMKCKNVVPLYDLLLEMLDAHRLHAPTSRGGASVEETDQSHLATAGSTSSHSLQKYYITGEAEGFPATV
Readout Name: pIC50
Remember, pIC50 is on a log scale: it is -log10 of the molar concentration.

COc1cccc(F)c1C1=C(c2ccc(C=C3CN(CCCF)C3)cc2)c2ccc(C(=O)O)cc2CCC1 9.30
O=C(O)c1ccc2c(c1)CCCC(c1c(Cl)cccc1OC(F)(F)F)=C2c1ccc(C=C2CN(CCCF)C2)cc1 9.30
C[C@H]1CC[C@H](C2=C(c3ccc(C=C4CN(CCCF)C4)cc3)c3ccc(C(=O)O)cc3CCC2)CC1 9.15
Cc1ccc(C(F)(F)F)c(C)c1C1=C(c2ccc(C=C3CN(CCCF)C3)cc2)c2ccc(C(=O)O)cc2CCC1 9.22
COc1cccc(C(F)(F)F)c1C1=C(c2ccc(C=C3CN(CCCF)C3)cc2)c2ccc(C(=O)O)cc2CCC1 9.52
COc1c(F)cccc1C1=C(c2ccc(C=C3CN(CCCF)C3)cc2)c2ccc(C(=O)O)cc2CCC1 9.30

pIC50 reading for O=C(O)c1ccc2c(c1)CCCC(c1cccc(F)c1OC(F)F)=C2c1ccc(C=C2CN(CCCF)C2)cc1 : 9.52

Reported pIC50 ( O=C(O)c1ccc2c(c1)CCCC(c1ccc(F)c(F)c1C(F)(F)F)=C2c1ccc(C=C2CN(CCCF)C2)cc1 ) = 9.00

The measured pIC50 associated with O=C(O)c1ccc2c(c1)CCCC(c1cccc(C(F)(F)F)c1C(F)(F)F)=C2c1ccc(C=C2CN(CCCF)C2)cc1 reads 9.40

Please fill in: pIC50 reported for COc1c(F)ccc(C)c1C1=C(c2ccc(C=C3CN(CCCF)C3)cc2)c2ccc(C(=O)O)cc2CCC1 = 9.30
